Source: patent US20250171534A1

tested.on: T1, LILRB1-ECD-HIS (SinoBiological Cat #: 16014-H02H) (human, UniProt Q8NHL6 24-461)
T1 construct: Bought protein; also called monomeric antigen LILRB1-ECD-HIS; not shown: His tag
procedure.details: SPR (Carterra LSA), antibody captured, antigen injected;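 note: kd obtained from kinetic analysis of antibody binding to the antigen, with association and dissociation phases fitted in the instrument software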
quantity.measured: pKd
Numbers only, as −log10 of the molar value.

## Input Name the reported pKd value associated with the binder #18 (antibody, human IgG1, V domains shown, also called D2M002-018) VH: EVQLQQSGAELMKPGASVKISCKTTGNTFSSYWIEWVKQRPGHDLEWIGEILPGSGSTNYNEKFKGKATFTADTSSNTAYMQLNSLTSEDSAVYYCARSGAGGYDSGAFAYWGQGTLVTVSA VL: DIVLTQSPASLAVSLGQRATISCRASESVDSYGNSFMHWYQQKPGQPPKLLIYRTSNLESGIPARFSGSGSRTDFTLTINPVEADDVATYYCQQSNEDPWTFGGGTKLEIK
## Output 8.87
